# relative_activity_day10 listing for each entry below
System: K562 CRISPRi cells
assay-protocol: Perturb-seq pooled growth measurement (sgRNA counts, growth phenotype γ, relative activity)
Format: cell-based, human
measurement-parameters: γ relative to perfectly matched sgRNA (_00) of the same gene, day 10
measure-name: relative_activity_day10

[
  {
    "substance": "SEC61A1_ −_127771295.23-P1_04 (guide GGCACTGAAGTGTCTCTCGG; listed as DNA, chemistry not fully specified)",
    "target": "K562 CRISPRi cells",
    "endpoint-result": 0.2049
  },
  {
    "substance": "MTOR_ + _11322547.23-P1P2_00 (guide GGGCAGGGGGCCTGAAGCGG; listed as DNA, chemistry not fully specified)",
    "target": "K562 CRISPRi cells",
    "endpoint-result": 1
  },
  {
    "substance": "GNB2L1_ + _180670873.23-P1P2_02 (guide GTGCAAGACGGCGGCAGGAG; listed as DNA, chemistry not fully specified)",
    "target": "K562 CRISPRi cells",
    "endpoint-result": 0.4167
  },
  {
    "substance": "RPL9_ + _39460483.23-P1P2_04 (guide GGATGTTTCAGTGCTCGTGG; listed as DNA, chemistry not fully specified)",
    "target": "K562 CRISPRi cells",
    "endpoint-result": 0.4392
  },
  {
    "substance": "ALDOA_ + _30077139.23-P1P2_06 (guide GGTCACCAGGATCCCTTCTG; listed as DNA, chemistry not fully specified)",
    "target": "K562 CRISPRi cells",
    "endpoint-result": 0.951
  },
  {
    "substance": "RPS18_ + _33239917.23-P1P2_08 (guide GCTGCGATTCCGCTGGATCA; listed as DNA, chemistry not fully specified)",
    "target": "K562 CRISPRi cells",
    "endpoint-result": 0.3255
  },
  {
    "substance": "DUT_ + _48624411.23-P1P2_07 (guide GCGAGCGAGGAGCCCACCGG; listed as DNA, chemistry not fully specified)",
    "target": "K562 CRISPRi cells",
    "endpoint-result": 0.774
  },
  {
    "substance": "RPS15_ −_1438413.23-P1P2_00 (guide GACCAAAGCGATCTCTTCTG; listed as DNA, chemistry not fully specified)",
    "target": "K562 CRISPRi cells",
    "endpoint-result": 1
  },
  {
    "substance": "HSPA5_ + _128003624.23-P1P2_01 (guide GAACCGAGTAGGCGACGGTG; listed as DNA, chemistry not fully specified)",
    "target": "K562 CRISPRi cells",
    "endpoint-result": 0.8774
  },
  {
    "substance": "BCR_ + _23523092.23-P1P2_15 (guide GCGCGCGGGGCCCGTCGCAG; listed as DNA, chemistry not fully specified)",
    "target": "K562 CRISPRi cells",
    "endpoint-result": 0.3498
  },
  {
    "substance": "HSPE1_ + _198365089.23-P1P2_00 (guide GGAGACTCGCAGTCCGGCCC; listed as DNA, chemistry not fully specified)",
    "target": "K562 CRISPRi cells",
    "endpoint-result": 1
  },
  {
    "substance": "BCR_ + _23523092.23-P1P2_13 (guide GCGCGCGGGGCCCATCTCAG; listed as DNA, chemistry not fully specified)",
    "target": "K562 CRISPRi cells",
    "endpoint-result": 0.3187
  }
]
